Biological target: OCTN2 (organic cation/carnitine transporter 2) (Mus musculus, UniProt Q9Z0E8)
Sequence (Q9Z0E8 whole entry): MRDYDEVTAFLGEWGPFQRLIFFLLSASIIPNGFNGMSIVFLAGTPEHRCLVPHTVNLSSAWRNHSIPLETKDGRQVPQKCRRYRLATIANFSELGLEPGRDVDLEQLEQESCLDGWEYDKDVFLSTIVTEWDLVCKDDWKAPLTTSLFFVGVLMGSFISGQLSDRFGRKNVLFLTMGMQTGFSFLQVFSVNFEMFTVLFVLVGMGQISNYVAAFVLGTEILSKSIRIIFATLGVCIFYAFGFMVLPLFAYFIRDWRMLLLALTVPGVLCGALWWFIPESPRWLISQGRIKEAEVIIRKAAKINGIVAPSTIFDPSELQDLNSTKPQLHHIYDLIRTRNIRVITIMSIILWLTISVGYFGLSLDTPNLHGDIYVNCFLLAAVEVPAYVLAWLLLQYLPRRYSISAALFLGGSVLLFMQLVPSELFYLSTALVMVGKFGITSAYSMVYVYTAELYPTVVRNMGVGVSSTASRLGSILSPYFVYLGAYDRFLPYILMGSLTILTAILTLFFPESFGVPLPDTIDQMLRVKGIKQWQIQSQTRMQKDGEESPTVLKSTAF
Experiment: TP_TRANSPORTER: inhibition of Carnitine uptake (Carnitine: 0.01 uM, Quinidine: 500 uM) in OCTN2-expressing HEK293 cells
Assay type: functional, cell-based
Set-up: scale not given: the % may be the effect or the level left
Conditions: human, HEK293 cells that express OCTN2, probe carnitine; read-out: Activity
OBSERVABLE: activity at 500 µM

Ask: Tell us which activity at 500 µM value is on record for "C=C[C@H]1C[N@@]2CC[C@H]1C[C@@H]2[C@@H](O)c1ccnc2ccc(OC)cc12"
Reply: 6.1%

Data origin, for the record: ChEMBL document CHEMBL2074332
